Data origin, for the record: PubChem BioAssay AID678

biological target: Metabotropic glutamate receptor 4 (Homo sapiens); experiment: human mGluR4 response to M1 antagonist hits, M1 allosteric modulator project, cell-based, antagonist mode, secondary assay 1 (AID 678); settings: CHO-mGluR4 calcium flux, Fluo-4 fluorescence, glutamate EC80; at 10 µM; active compounds read low;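 further: raw unnormalized fluorescence span taken in the window right after glutamate addition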
About 15 (0.9%) of roughly 1,700 compounds were called active. The list is a sample of the results.
property: fluorescence response (max-min)
No unit in the answer, please; the number alone is enough.

Consider the following illustrative entries.
CCN1CCN(c2c(Cl)cccc2NC(=O)c2ccc(Br)o2)CC1 ... 203
CC1(C)CN=C(N2CCN(c3ncnc4sc5c(c34)CCCC5)CC2)S1 ... 244
CN(C)CCOC(=O)C(c1ccccc1)C1(O)CCCC1 (stereo not given) ... 250
COc1ccc(-c2nnn(Cc3nc(N)nc(N4CCCCC4)n3)n2)cc1 ... 348
COc1ccc(-c2noc(CN(C)S(=O)(=O)c3ccc(C)cc3)n2)cc1 ... 259

Ask | Return reported fluorescence response (max-min) for target or system Metabotropic glutamate receptor 4 (Homo sapiens), item "CC1(C)Cc2c(sc3nc4n(c(=N)c23)CCCCC4)CO1" .
Reply | 203

====

biological target: Metabotropic glutamate receptor 4 (Homo sapiens) (UniProt Q14833); test: human mGluR4 response to M1 antagonist hits, M1 allosteric modulator project, cell-based, antagonist mode, secondary assay 1 (AID 678); conditions: CHO-mGluR4 calcium flux, Fluo-4 fluorescence, glutamate EC80; at 10 µM; active compounds read low;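 further: raw unnormalized fluorescence span taken in the window right after glutamate addition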
The campaign covered roughly 1,700 compounds. About 15 (0.9%) were called active. A selection follows.
Recorded fluorescence response (max-min), one value per entry.
Output: the number by itself.

Ask | Using the record for "O=C(Nc1ccncc1)c1c(F)cccc1F" , state its measured fluorescence response (max-min).
Reply | 195

Ask | Provide fluorescence response (max-min) value for the following compound: "CCOC(=O)c1c(NC(=O)CSc2nnc(CN3CCOCC3)n2C)sc2c1CCCC2"
Reply | 212

Ask | Give the measured fluorescence response (max-min) for COCCn1c(SCC(=O)Nc2cc(Cl)ccc2OC)nc2c(c1=O)SC(C)C2 (centres undefined)
Reply | 256

Ask | Given the compound "Cc1cc(C)n(-c2nc(SCC(=O)N3CCCC3)c3c4c(sc3n2)CCCC4)n1" , write its reported fluorescence response (max-min).
Reply | 193

====

Recorded fluorescence response (max-min) by entry
biological target: Metabotropic glutamate receptor 4 (Homo sapiens); assay: human mGluR4 response to M1 antagonist hits, M1 allosteric modulator project, cell-based, antagonist mode, secondary assay 1 (AID 678); details: CHO-mGluR4 calcium flux, Fluo-4 fluorescence, glutamate EC80; at 10 µM; active compounds read low;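 further: raw unnormalized fluorescence span taken in the window right after glutamate addition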
Hit rate of the full screen: of about 1,700 compounds, about 15 (0.9%) were called active. The list is a sample of the results.
Just the number, please, no unit attached.

Examples with answers:
CCCCN(C)C(=O)c1ccc2c(c1)N(CC)C(=O)c1ccccc1S2(=O)=O ... 258
N#CC(C(=O)c1ccc(S(=O)(=O)N2CCCCCC2)cc1)c1nc2ccccc2[nH]1 (centres undefined) ... 182
O=C(Cc1cccs1)N1CCCC(c2nc(-c3ccc(S(=O)(=O)N4CCCC4)cc3)no2)C1 (centres undefined) ... 213

Ask | State its fluorescence response (max-min) for this compound: CCC(=O)c1ccc(OCC(O)CN2CCN(c3cccc(C(F)(F)F)c3)CC2)cc1 (centres undefined)
Reply | 252
